Below, each entry is listed with its recorded inhibition of growth at 50 µM.
System: Staphylococcus aureus
PROTOCOL: Growth inhibition of Staphylococcus aureus ATCC 25923 at 50 uM after 24 hrs by broth microdilution method relative to control
Format: functional
SETUP_CONDITIONS: ATCC 25923, 24 h, read-out: GI
Kindly provide the numeric value in % only, without the unit symbol.

// solved cases for inhibition of growth at 50 µM follow
1. O=C(O)CNC(=O)c1ccc(NC(=O)c2cc(Br)c(Br)[nH]2)cc1OCc1ccccc1 : 19
2. CC(C)Oc1cc(C(=O)N[C@H](C(=O)O)C(C)C)ccc1NC(=O)c1cc(Br)c(Br)[nH]1 : -13
3. COC(=O)[C@H](Cc1ccccc1)NC(=O)c1ccc(NC(=O)c2cc(Br)c(Br)[nH]2)c(OCCN)c1 : 103
4. Cc1[nH]c(C(=O)Nc2ccc(C(=O)N[C@@H](C)c3n[nH]c(=O)o3)cc2OC(C)C)c(Cl)c1Cl : 100
5. Cc1[nH]c(C(=O)Nc2ccc(C(=O)N[C@@H](C)C(=O)NN)cc2OC(C)C)c(Cl)c1Cl : 5

For the compound shown here, CN(C)CCOc1cc(NC(=O)c2cc(Br)c(Br)[nH]2)ccc1C(=O)NCC(=O)O , give the reported inhibition of growth at 50 µM. 28

What do we get for Cc1[nH]c(C(=O)Nc2ccc(C(=O)N[C@@H](Cc3ccccc3)C(=O)O)cc2OC(C)C)c(Cl)c1Cl ? -57

What do we get for Cc1[nH]c(C(=O)Nc2ccc(C(=O)N[C@@H](C)C(=O)O)cc2OCCN)c(Cl)c1Cl ? 17

What do we get for Cc1[nH]c(C(=O)Nc2ccc(C(=O)N[C@@H](C)c3n[nH]c(=O)o3)cc2OCCN)c(Cl)c1Cl ? 0

What do we get for COC(=O)[C@@H](C)NC(=O)c1ccc(NC(=O)c2[nH]c(C)c(Cl)c2Cl)c(OC(C)C)c1 ? 29

###

Tested on: HUVEC
PROTOCOL: Cytotoxicity against HUVEC assessed as reduction in cell proliferation after 72 hrs by MTS assay
Format: cell-based
SETUP_CONDITIONS: Homo sapiens
READOUT_TYPE: pIC50
The scale used: pIC50 is minus the common logarithm of the concentration in molar units.

1) Cc1[nH]c(C(=O)Nc2ccc(C(=O)N[C@@H](C)c3n[nH]c(=O)o3)cc2OC(C)C)c(Cl)c1Cl : 4.39

Attention now turns to another entry.
Fill in the recorded pIC50 for this molecule, with HUVEC as test system: COc1cc([C@@H]2c3cc4c(cc3[C@@H](O[C@@H]3O[C@@H]5CO[C@@H](C)O[C@H]5[C@H](O)[C@H]3O)[C@H]3COC(=O)[C@H]23)OCO4)cc(OC)c1O [ETOPOSIDE] 5.28

###

Below, each entry is listed with its recorded MIC90.
Test system: Enterococcus faecalis
PROTOCOL: Antibacterial activity against Enterococcus faecalis ATCC 29212 after 18 hrs by broth microdilution method
Type: functional
SETUP_CONDITIONS: ATCC 29212, 18 h
Kindly provide the numeric value in µM only, without the unit symbol.

1) Cc1[nH]c(C(=O)Nc2ccc(C(=O)N[C@@H](C)c3n[nH]c(=O)o3)cc2OC(C)C)c(Cl)c1Cl : 1.56

For the compound shown here, Cc1[nH]c(C(=O)Nc2ccc(C(=O)N[C@H](C)C(=O)O)cc2OC(C)C)c(Cl)c1Cl , give the reported MIC90. 6.25

What do we get for Cc1[nH]c(C(=O)Nc2ccc(C(=O)N[C@@H](C)C(=O)NN)cc2OC(C)C)c(Cl)c1Cl ? 6.25

What do we get for COC(=O)[C@H](C)NC(=O)c1ccc(NC(=O)c2[nH]c(C)c(Cl)c2Cl)c(OCCN)c1 ? 25

What do we get for Cc1[nH]c(C(=O)Nc2ccc(C(=O)N[C@@H](C)c3n[nH]c(=O)o3)cc2OCCNC(=O)OC(C)(C)C)c(Cl)c1Cl ? 100

What do we get for Cc1[nH]c(C(=O)Nc2ccc(C(=O)N[C@@H](C)C(=O)O)cc2OC(C)C)c(Cl)c1Cl ? 3.13

What do we get for Cc1[nH]c(C(=O)Nc2ccc(C(=O)N[C@@H](Cc3ccccc3)C(=O)O)cc2OC(C)C)c(Cl)c1Cl ? 3.13

What do we get for COC(=O)[C@H](Cc1ccccc1)NC(=O)c1ccc(NC(=O)c2cc(Br)c(Br)[nH]2)c(OCCN)c1 ? 50

All values here come from ChEMBL document CHEMBL4152269.
